Target: BACE1 enzyme (Homo sapiens, UniProt P56817)
Construct: The HEK293-9B.A1 cell line, which overexpresses the BACE1 enzyme, was derived from HEK293 cells; endogenous in cells; washed 48,000xg membrane pellet/homogenate
Sequence (P56817 46-501): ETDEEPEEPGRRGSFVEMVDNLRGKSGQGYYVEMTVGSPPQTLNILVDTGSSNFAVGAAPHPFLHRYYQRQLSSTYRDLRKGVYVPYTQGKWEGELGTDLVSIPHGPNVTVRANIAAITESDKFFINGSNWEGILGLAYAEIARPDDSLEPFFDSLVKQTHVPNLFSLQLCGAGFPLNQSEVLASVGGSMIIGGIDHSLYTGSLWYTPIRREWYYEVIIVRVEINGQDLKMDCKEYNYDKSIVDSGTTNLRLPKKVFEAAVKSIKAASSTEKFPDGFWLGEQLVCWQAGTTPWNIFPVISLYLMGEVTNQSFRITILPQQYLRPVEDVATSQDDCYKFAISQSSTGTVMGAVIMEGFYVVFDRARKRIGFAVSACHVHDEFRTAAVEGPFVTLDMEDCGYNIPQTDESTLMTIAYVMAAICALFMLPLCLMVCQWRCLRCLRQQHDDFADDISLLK
Assay: Radioligand displacement assay with a radiolabeled BACE inhibitor on HEK293-9B.A1 cell homogenate
Conditions: displacement of 1 nM tritiated radioligand, HEK293-9B.A1 homogenate, pH 5.0, 1.5 hr at 25° C.; read-out: Activity Rating (activity based on IC50 values)
pIC50: −log10 of the molar value.
pIC50: recorded values
Readout name: pIC50

- Molecule: "CC(=O)Nc1c(Cl)cc(CN/C(N)=N/C(=O)C2C3CC3CN2c2ccccc2)cc1Cl (stereo not shown) [Example 34]"
  Readout name: "pIC50"
  Recorded result: "6.00 to 7.00"
- Molecule: "CN(C)CC(=O)Nc1c(Cl)cc(CN/C(N)=N/C(=O)[C@@H]2CCCN2c2ccccc2)cc1Cl [Example 3]"
  Readout name: "pIC50"
  Recorded result: "6.00 to 7.00"
- Molecule: "CO[C@@H]1C[C@@H](C(=O)/N=C(\\N)NCc2cc(Cl)c(NC(C)=O)c(Cl)c2)N(c2ccccc2)C1 [Example 32]"
  Readout name: "pIC50"
  Recorded result: "> 7.00"
- Molecule: "COc1ccc(N2CCC[C@H]2C(=O)/N=C(\\N)NCc2cc(Cl)c(NC(C)=O)c(Cl)c2)cc1 [Example 5]"
  Readout name: "pIC50"
  Recorded result: "6.00 to 7.00"
- Molecule: "CC(=O)Nc1c(Cl)cc(CN/C(N)=N/C(=O)[C@@H]2CCCN2c2ccccc2)cc1Cl [Example 2]"
  Readout name: "pIC50"
  Recorded result: "6.00 to 7.00"
- Molecule: "CN(C)CC(=O)Nc1c(Cl)cc(CN/C(N)=N/C(=O)[C@H]2CCCN2c2ccc(C(F)(F)F)cc2)cc1Cl [Example 31]"
  Readout name: "pIC50"
  Recorded result: "> 7.00"
- Molecule: "COc1ccc(N2CCC[C@H]2C(=O)/N=C(\\N)NCc2cc(Cl)c(NC(=O)CN(C)C)c(Cl)c2)cc1 [Example 6]"
  Readout name: "pIC50"
  Recorded result: "6.00 to 7.00"
- Molecule: "COc1ccc(N2CCC[C@H]2C(=O)/N=C(\\N)NCc2cc(Cl)c(N)c(Cl)c2)cc1 [Example 4]"
  Readout name: "pIC50"
  Recorded result: "6.00 to 7.00"
- Molecule: "CO[C@@H]1C[C@@H](C(=O)/N=C(\\N)NCc2cc(Cl)c(NC(=O)CN(C)C)c(Cl)c2)N(c2ccccc2)C1 [Example 33]"
  Readout name: "pIC50"
  Recorded result: "> 7.00"
- Molecule: "N/C(=N\\C(=O)[C@@H]1CCCN1c1ccccc1)NCc1cc(Cl)c(N)c(Cl)c1 [Example 1]"
  Readout name: "pIC50"
  Recorded result: "6.00 to 7.00"

// data source = patent US7408071B2
